The values you see were collected from patent US20250002507A1.

Target: Human M4 (Homo sapiens)
Construct: expressed in transfected cells
Sequence (P08173 1-479): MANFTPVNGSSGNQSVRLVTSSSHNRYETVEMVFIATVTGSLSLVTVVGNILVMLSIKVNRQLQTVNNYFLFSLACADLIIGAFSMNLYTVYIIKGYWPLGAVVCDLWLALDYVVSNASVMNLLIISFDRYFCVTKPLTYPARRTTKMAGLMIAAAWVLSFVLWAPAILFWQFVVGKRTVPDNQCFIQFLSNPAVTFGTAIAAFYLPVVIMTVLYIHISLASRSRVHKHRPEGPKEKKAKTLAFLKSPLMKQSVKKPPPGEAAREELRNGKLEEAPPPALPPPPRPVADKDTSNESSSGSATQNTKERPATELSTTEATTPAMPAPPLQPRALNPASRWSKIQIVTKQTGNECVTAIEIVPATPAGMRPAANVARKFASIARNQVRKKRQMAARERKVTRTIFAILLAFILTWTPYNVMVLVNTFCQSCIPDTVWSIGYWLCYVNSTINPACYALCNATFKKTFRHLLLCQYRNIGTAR
Assay: mAChR M4 cell-based functional assay (calcium flux, potentiation of EC20 acetylcholine response), hM4-Gqi5 CHO-K1 cells
Conditions: CHO-K1; % ACh maximum at 30 μM; human M4; read-out: Emax
For each record, check the reported Emax at 30 µM: if it is below 80% write true, else write false.

Here's what some known entries look like.
COc1cc(F)c(Nc2cnc3c(c2)CN(c2nn4cnnc4c(C)c2C)CC3)c(F)c1    false
Cc1cc2nccn2nc1N1CCc2ncc(-c3cnn(C)c3)cc2C1    false
Cc1c(N2CCc3ncc(Nc4cccnc4F)cc3C2)nn2cnnc2c1C    false

Now examine the next entry.
Request: Check if Emax at 30 µM falls below 80% for Cc1cc2nccn2nc1N1CCc2ncc(-c3cnn(C4CCNCC4)c3)cc2C1 .
Result: false
